# Study System: T1, Gal4 transcriptional activation domain (AD) fused in frame with AR (pGAD-C2) (yeast, UniProt P10275 1-920, limits assumed)
# T1 sequence (looked up): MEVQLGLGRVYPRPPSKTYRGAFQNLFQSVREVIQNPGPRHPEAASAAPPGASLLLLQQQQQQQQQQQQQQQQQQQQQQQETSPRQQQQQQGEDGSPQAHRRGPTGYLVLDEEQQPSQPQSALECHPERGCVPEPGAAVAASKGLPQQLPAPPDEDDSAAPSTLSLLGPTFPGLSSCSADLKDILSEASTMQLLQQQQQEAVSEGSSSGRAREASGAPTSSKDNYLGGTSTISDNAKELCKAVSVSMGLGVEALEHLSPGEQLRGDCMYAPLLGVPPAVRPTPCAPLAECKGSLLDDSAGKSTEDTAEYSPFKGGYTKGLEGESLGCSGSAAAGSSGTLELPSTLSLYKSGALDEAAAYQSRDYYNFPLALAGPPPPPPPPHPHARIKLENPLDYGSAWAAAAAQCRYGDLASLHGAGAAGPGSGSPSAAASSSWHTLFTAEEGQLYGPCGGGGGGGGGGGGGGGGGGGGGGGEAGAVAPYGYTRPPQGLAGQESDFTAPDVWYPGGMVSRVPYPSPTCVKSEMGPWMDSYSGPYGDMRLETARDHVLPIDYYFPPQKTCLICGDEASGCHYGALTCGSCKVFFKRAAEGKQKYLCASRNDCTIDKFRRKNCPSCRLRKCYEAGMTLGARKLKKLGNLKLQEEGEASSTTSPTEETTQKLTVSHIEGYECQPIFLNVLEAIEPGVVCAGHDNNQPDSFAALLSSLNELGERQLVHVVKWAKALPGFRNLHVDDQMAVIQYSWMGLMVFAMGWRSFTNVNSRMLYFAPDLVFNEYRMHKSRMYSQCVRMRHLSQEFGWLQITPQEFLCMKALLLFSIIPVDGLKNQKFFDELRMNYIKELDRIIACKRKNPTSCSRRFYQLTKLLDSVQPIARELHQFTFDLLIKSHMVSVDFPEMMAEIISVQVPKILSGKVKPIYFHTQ
# Method Summary: cell-based or functional assay
Value Type: Fold induction, yeast two-hybrid (fold)

B2A7 (peptide) MKLLSSIEQACDICRLKKLKCSKEKPKCAKCLKNNWECRYSPKTKRSPLTRAHLTEVESRLERLEQLFLLIFPREDLDMILKMDSLQDIKALLTGLFVQDNVNKDAVTDRLASVETDMPLTLRQHRISATSSSEESSNKGQRQLTVSEFPELLAMTRWGRHAALLEPQRLPPPRTTTQPQTEFERMFFFTRPMRTTGLLDLQPS
5
B8A10 (peptide) MKLLSSIEQACDICRLKKLKCSKEKPKCAKCLKNNWECRYSPKTKRSPLTRAHLTEVESRLERLEQLFLLIFPREDLDMILKMDSLQDIKALLTGLFVQDNVNKDAVTDRLASVETDMPLTLRQHRISATSSSEESSNKGQRQLTVSEFVNWDAVVPWSELVALLDLQPS
1
M2H3 (peptide) MKLLSSIEQACDICRLKKLKCSKEKPKCAKCLKNNWECRYSPKTKRSPLTRAHLTEVESRLERLEQLFLLIFPREDLDMILKMDSLQDIKALLTGLFVQDNVNKDAVTDRLASVETDMPLTLRQHRISATSSSEESSNKGQRQLTVSEFRQSFVSEILGGGWLPLDLQPS
10
